assay: in vitro; conditions: human, microsomes, pH 7.4, HLM CLint
ENDPOINT: microsomal CLint at 1 µM

The cases that follow already have their microsomal CLint at 1 µM on record.
Nc1ccc(S(=O)(=O)c2ccc(N)cc2)cc1	< 7 µL/min/mg
CC(C)(N)CNC(=O)C[C@H]1CC[C@]2(CC1)OO[C@]1(O2)C2CC3CC(C2)CC1C3	< 7 µL/min/mg

Now take the following compound into account.
Can you look up the measured microsomal CLint at 1 µM of OC(c1cc(C(F)(F)F)nc2c(C(F)(F)F)cccc12)C1CCCCN1 (stereo not drawn) for me?
< 7 µL/min/mg

---

Provide the recorded IC50 for the entries that follow.
target: CYP2D6 (Homo sapiens); assay: in vitro; settings: microsomes
Sequence (P10635 whole entry): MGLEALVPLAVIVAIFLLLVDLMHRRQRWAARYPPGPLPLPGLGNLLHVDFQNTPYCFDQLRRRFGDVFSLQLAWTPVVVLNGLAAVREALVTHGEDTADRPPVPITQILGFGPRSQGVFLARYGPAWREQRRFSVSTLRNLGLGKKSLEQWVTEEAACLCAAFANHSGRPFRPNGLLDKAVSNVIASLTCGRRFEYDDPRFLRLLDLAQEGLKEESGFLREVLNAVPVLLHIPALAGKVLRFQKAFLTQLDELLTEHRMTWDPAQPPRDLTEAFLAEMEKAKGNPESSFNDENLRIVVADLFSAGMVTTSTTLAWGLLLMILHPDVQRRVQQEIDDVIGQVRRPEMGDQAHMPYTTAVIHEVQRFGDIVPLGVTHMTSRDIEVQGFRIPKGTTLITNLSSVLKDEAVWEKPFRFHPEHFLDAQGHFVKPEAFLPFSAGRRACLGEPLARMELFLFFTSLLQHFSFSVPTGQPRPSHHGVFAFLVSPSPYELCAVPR

O=C(NCCN1CCCC1)c1cc(-c2ccc(CN3CCOCC3)cc2)nc2ccc(F)cc12	> 20 µM
CCc1nc(N)nc(N)c1OCCCOc1ccccc1CCC(=O)O.Cl	> 20 µM

Now take the following molecule into account.
Value wanted: IC50 (CYP2D6 (Homo sapiens)) of entry COc1cc(N[C@H](C)CCCN)c2nccc(C)c2c1Oc1ccc(Cl)c(Cl)c1 [NPC1161B]
> 20 µM

Values from paper PMC6941357
